Data credit: patent EP4813991A1

Target of assay: CDK12 (Homo sapiens, UniProt Q9NYV4)
Sequence (Q9NYV4 whole entry, species assumed): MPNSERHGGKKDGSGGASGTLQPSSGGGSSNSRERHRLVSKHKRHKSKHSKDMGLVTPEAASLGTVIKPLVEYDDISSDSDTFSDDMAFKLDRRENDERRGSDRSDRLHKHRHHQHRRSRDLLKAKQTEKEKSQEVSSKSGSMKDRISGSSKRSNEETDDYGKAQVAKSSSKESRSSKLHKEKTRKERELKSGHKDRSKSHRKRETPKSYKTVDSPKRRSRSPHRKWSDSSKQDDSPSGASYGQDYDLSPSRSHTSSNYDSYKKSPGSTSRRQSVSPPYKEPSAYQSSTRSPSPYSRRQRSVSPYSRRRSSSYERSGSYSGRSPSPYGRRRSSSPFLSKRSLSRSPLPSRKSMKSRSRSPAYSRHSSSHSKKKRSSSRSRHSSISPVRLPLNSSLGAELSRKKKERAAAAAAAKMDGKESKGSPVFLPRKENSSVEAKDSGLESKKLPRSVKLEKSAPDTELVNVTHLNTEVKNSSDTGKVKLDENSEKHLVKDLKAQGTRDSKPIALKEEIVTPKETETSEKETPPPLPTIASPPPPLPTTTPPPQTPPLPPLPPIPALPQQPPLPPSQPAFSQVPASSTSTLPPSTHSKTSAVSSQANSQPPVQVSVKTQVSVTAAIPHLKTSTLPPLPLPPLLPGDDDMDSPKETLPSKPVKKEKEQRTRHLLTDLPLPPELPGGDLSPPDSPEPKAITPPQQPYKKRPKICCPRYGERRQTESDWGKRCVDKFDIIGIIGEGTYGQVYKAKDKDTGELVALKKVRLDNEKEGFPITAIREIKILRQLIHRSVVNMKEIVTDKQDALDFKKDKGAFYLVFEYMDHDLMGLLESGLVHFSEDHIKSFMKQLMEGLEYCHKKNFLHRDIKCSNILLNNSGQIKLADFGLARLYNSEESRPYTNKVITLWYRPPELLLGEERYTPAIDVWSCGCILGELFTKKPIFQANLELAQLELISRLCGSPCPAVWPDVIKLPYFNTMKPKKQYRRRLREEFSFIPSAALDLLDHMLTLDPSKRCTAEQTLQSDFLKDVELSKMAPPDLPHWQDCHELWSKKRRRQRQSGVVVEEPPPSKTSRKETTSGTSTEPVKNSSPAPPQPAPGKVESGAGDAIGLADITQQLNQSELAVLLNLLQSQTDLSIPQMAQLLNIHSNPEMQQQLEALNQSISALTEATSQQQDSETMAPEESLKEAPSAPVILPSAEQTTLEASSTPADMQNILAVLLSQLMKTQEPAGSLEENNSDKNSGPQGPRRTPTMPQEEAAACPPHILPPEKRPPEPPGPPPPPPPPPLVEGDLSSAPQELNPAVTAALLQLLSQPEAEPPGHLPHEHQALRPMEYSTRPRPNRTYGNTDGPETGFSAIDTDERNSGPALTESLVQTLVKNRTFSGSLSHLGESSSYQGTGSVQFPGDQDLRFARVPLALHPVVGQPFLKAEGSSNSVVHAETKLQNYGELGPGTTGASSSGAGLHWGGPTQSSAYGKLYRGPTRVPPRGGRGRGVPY
Sequence (O75909 whole entry partner, species assumed): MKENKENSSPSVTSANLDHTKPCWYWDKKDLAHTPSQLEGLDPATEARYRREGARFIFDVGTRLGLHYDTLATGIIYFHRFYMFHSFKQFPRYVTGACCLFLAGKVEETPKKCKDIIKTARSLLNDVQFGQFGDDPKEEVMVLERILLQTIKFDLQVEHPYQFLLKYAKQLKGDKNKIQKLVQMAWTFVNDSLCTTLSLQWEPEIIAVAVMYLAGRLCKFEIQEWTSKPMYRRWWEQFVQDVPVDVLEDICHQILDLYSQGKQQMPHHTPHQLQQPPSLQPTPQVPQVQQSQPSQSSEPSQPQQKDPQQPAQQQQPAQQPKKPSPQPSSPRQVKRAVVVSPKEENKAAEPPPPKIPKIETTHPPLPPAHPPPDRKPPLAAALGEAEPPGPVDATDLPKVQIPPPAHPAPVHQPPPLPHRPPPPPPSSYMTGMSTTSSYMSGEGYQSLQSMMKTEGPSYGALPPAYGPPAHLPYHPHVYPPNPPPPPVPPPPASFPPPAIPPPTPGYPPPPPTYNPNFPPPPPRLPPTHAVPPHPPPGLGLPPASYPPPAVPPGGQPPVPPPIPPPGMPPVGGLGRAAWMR
Assay notes: CDK12 kinase inhibitory activity assay (33P-ATP filter binding)
Format: biochemical
Experimental parameters: kinase reaction 120 minutes, 33P-gamma-ATP; read-out: CDK12 IC50
Observable: IC50

Solved entries:
CC1(O)CN(c2cc(NCc3nc4cc(Cl)c(Cl)cc4[nH]3)c3ncc(C(F)(F)F)n3n2)C1 ... 100 to 500 nM
CC#Cc1cnc2c(NCc3nc4ccc(F)c(F)c4[nH]3)cc(-c3cnc(N)nc3)nn12 ... > 500 nM
NC1CN(c2cc(NCc3nc4cc(Cl)c(Cl)cc4[nH]3)c3ncc(C(F)(F)F)n3n2)C1 ... < 100 nM
FC(F)(F)c1cnc2c(NCc3nc4ccccc4[nH]3)cc(N3CCOCC3)nn12 ... < 100 nM
CC#Cc1cnc2c(NCc3nc4ccc(F)c(F)c4[nH]3)cc(N3CCOCC3)nn12 ... > 500 nM
FC(F)(F)c1cnc2c(NCc3cc4ncccc4[nH]3)cc(N3CCOCC3)nn12 ... < 100 nM

I am curious: what IC50 value has been reported for N#CC1CN(c2cc(NCc3nc4ccc(Cl)c(Cl)c4[nH]3)c3ncc(C(F)(F)F)n3n2)C1 ? < 100 nM

I am curious: what IC50 value has been reported for Fc1ccc2nc(CNc3cc(N4CC5CCC(C4)N5)nn4c(C(F)(F)F)cnc34)[nH]c2c1F ? < 100 nM
